# TESTED TARGET: T1, recombinant human CD70 (AviTag, polyhistidine tag and chicken tenascin trimerization domain fused to the … (chicken; human, UniProt P10039 110-139, limits assumed)
# T1 construct: domain: trimerization domain; Expressed in Expi293, purified by IMAC and SEC; Copies 3 is inferred from the trimerization domain; not shown: AviTag; polyhistidine tag
# T1 sequence: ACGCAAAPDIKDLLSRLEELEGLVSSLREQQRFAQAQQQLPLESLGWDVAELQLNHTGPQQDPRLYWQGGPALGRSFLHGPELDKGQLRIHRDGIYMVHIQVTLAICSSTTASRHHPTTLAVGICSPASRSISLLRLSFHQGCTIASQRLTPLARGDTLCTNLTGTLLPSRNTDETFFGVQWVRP
# ASSAY COMMENT: SPR (Biacore 8K, 37 C): CD70 captured via anti-AviTag antibody on C1 chip, scFv-Fc as analyte; 1:1 Langmuir fit
t1/2 values by entry
RECORDED ENDPOINT: t1/2 (min)

BINDER: 10A1 anti-CD70 scFv-Fc fusion (Fc fusion, scFv-Fc expressed in Expi293; not shown: part of the hinge and Fc from a modified human IgG2) QVQLQESGPGLVKPSETLSLTCTVSGGSISYYYWTWIRQPPGKGLEWIGHIYYSGSTNYNPSLKSRVTISIDTSKNLFSLKLSSVTAADTAVYYCARAEGSLDAFDFWGQGTMVTVSSGGGGSGGGGSGGGGSGGGGSDIQMTQSPSTLSASVGDRVTITCRASQSISTWLAWYQQKPGKAPKVLIYKASSLESGVPSRFSGSGSGTEFILTINSLQPDDFASYYCQQYKSYSHTFGQGTKLEIK
RECORDED ENDPOINT: t1/2
UNIT INFO: min
TEST RESULT: 14.9
--
BINDER: P08F08 anti-CD70 scFv-Fc fusion (Fc fusion, scFv-Fc expressed in Expi293; not shown: part of the hinge and Fc from a modified human IgG2) EVQLVQSGAEVKKPGESLKISCKGSGYGFTSYWIGWVRQMPGKGLEWMGIIHPDDSDTKYSPSFQGQVTISADKSISTAYLQWSSLKASDTAMYYCASSYLRGLWGGYFDYWGQGTLVTVSSGGGGSGGGGSGGGGSGGGGSELQSVLTQPPSASGTPGQRVTISCSGSSSNIGSNYVNWYQQLPGTAPKLLIYGDYQRPSGVPDRFSGSKSGTSASLAISGLRSEDEADYYCATRDDSLSGSVVFGTGTKLTVL
RECORDED ENDPOINT: t1/2
UNIT INFO: min
TEST RESULT: 0.8
--
BINDER: 10H10 anti-CD70 scFv-Fc fusion (Fc fusion, scFv-Fc expressed in Expi293; not shown: part of the hinge and Fc from a modified human IgG2) EVQLVESGGGLVQPGGSLRLSCAVSGFTFSNHNIHWVRQAPGKGLEWISYISRSSSTIYYADSVKGRFTISRDNAKNSLYLQMNSLRDEDTAVYYCARDHAQWYGMDVWGQGTTVTVSSGGGGSGGGGSGGGGSGGGGSDIQMTQSPSSVSASVGDRVTITCRASQGISSWLAWYQQKPGKAPKVLIYAASSLQSGVPSRFSGSGSGTDFTLTISSLQPEDFATYYCQQAFSFPFTFGPGTKVDIK
RECORDED ENDPOINT: t1/2
UNIT INFO: min
TEST RESULT: 3.6

# credit: patent US20190233528A1
